Assay: growth inhibition of DIPG glioma cells, dose response, cell-based, JHH-DIPG-1, MIPE4.0, CellTiter-Glo, qHTS (AID 1347062);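 for AC50: cells exposed to compound for two days before readout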
Conditions: JHH-DIPG-1 viability, CellTiter-Glo ATP luminescence
Inconclusive results are not listed. Activity calls are given as the source filed them. No cut-off is given here; in the data, nearly all actives have AC50 up to about 27 µM.
Field 'call' accepts true (active), false (inactive)

// known answers, use as guide
O=C(O)CCn1c2c(c3ccccc31)C[C@H](NS(=O)(=O)c1ccc(F)cc1)CC2 | false
C[C@@H]1[C@H](O)[C@@H](C)/C=C/C=C/C=C/C=C/C=C/C=C/C=C/[C@H](O[C@@H]2O[C@H](C)[C@@H](O)[C@H](N)[C@@H]2O)C[C@@H]2O[C@](O)(C[C@@H](O)C[C@@H](O)[C@H](O)CC[C@@H](O)C[C@@H](O)CC(=O)O[C@H]1C)C[C@H](O)[C@H]2C(=O)O | true
CCC(C)(Oc1ccc(C2(c3ccc(OC(C)(CC)C(=O)O)cc3)CCCCC2)cc1)C(=O)O (stereo not drawn) | false
O=C(O)c1cc(=O)[nH]c(=O)[nH]1 | false
C[C@]12CCC(=O)C=C1[C@@H]1C[C@@H]1[C@H]1[C@@H]3[C@@H]4C[C@@H]4[C@@]4(CCC(=O)O4)[C@@]3(C)CC[C@@H]12 | false

Task item: Each molecule tested received a call. Report the one for COc1cc([C@@H]2c3cc4c(cc3[C@H](O)[C@H]3COC(=O)[C@@H]23)OCO4)cc(OC)c1OC .
Reply: true

Task item: // outcome(item) with item = OC(CCN1CCCCC1)(c1ccccc1)C1CC2C=CC1C2 (stereo not drawn)
Reply: false

Task item: // param item: Clc1ccccc1CN1CCc2sccc2C1 ; yields the recorded call
Reply: false

FYI, the data here is from PubChem BioAssay.
